AC50 reference
molecular target: Cytochrome P450 2C19 (Homo sapiens, UniProt P33261); assay: Cytochrome panel assay with activity outcomes. Panel member name: p450-cyp2c19 Compounds with AC50 equal or less than 10 uM are considered active; format: functional; conditions: read-out: AC50
Sequence (P33261 whole entry): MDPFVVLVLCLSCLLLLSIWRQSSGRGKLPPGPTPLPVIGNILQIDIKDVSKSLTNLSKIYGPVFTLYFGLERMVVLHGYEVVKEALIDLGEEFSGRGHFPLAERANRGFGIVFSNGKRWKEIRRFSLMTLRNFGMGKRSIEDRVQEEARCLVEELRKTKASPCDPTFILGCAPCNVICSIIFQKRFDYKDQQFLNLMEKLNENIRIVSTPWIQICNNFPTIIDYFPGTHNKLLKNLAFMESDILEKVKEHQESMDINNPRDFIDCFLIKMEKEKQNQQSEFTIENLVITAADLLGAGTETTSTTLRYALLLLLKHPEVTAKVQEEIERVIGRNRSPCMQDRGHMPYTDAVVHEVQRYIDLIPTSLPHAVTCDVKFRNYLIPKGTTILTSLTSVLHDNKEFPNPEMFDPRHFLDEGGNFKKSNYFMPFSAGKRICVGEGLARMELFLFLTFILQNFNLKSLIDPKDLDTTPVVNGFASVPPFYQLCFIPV

The examples below pair each entry with its known result.
COc1c(/C=N/Nc2nc(N3CCCCC3)nc(N3CCCCC3)n2)cccc1[N+](=O)[O-]	7.94 µM (inconclusive)
[O-][n+]1c2c([n+]([O-])c3cc(F)c(F)cc31)CCCC2	1 µM (inconclusive)

// moving on: another record for AC50
Note down AC50 recorded for CC(=O)Nc1ccccc1C(=O)C(=O)O
10 µM (inconclusive)

The measured values listed here are drawn from ChEMBL document CHEMBL1201862.
